# target: UniProt P21397
# Sequence (P21397 whole entry): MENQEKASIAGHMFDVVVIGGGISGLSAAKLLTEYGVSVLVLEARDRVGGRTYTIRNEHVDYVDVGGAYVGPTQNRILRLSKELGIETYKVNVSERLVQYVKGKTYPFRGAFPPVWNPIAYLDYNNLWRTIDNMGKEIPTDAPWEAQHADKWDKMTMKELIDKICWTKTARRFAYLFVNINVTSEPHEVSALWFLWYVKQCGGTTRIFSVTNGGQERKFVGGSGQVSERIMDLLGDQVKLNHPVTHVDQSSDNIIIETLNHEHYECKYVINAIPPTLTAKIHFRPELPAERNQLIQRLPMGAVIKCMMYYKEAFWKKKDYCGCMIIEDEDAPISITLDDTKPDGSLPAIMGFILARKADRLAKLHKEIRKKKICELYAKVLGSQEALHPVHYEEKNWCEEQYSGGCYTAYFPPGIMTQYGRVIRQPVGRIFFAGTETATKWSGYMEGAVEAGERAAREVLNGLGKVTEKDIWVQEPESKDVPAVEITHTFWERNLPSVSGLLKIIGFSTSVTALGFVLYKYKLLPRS
# Assay type: functional

# compound, AC50
measured = [
    ("CCCN1CCCC[C@H]1C(=O)Nc1c(C)cccc1C [ROPIVACAINE]", "> 30 µM"),
    ("CC(=O)[C@H]1CC[C@H]2[C@@H]3C[C@H](C)C4=CC(=O)CC[C@]4(C)[C@H]3[C@@H](O)C[C@]12C [MEDRYSONE]", "> 10 µM"),
    ("CCCN(CCC)S(=O)(=O)c1ccc(C(=O)O)cc1 [PROBENECID]", "> 10 µM"),
    ("CC1(C)S[C@@H]2[C@H](NC(=O)C(C(=O)O)c3ccccc3)C(=O)N2[C@H]1C(=O)O (some centres undefined) [CARBENICILLIN]", "> 30 µM"),
    ("O=C1Cc2cc(CCN3CCN(c4nsc5ccccc45)CC3)c(Cl)cc2N1 [ZIPRASIDONE]", "> 10 µM"),
    ("O=C1OC(OC(=O)c2cccnc2Nc2cccc(C(F)(F)F)c2)c2ccccc21 (centres undefined) [TALNIFLUMATE]", "> 30 µM"),
    ("Oc1cc(O)c(Cl)cn1", "> 30 µM"),
    ("CN(C)Cc1nnc2n1-c1ccc(Cl)cc1C(c1ccccc1)=NC2 [ADINAZOLAM]", "> 10 µM"),
    ("CCCN1CC(NS(=O)(=O)N(CC)CC)CC2Cc3c(O)cccc3CC21 (centres undefined) [QUINAGOLIDE]", "> 30 µM"),
]

----------
# target: Muscarinic acetylcholine receptor M1 (Homo sapiens, UniProt P11229); note: assay procedure not described here
# Sequence (P11229 whole entry): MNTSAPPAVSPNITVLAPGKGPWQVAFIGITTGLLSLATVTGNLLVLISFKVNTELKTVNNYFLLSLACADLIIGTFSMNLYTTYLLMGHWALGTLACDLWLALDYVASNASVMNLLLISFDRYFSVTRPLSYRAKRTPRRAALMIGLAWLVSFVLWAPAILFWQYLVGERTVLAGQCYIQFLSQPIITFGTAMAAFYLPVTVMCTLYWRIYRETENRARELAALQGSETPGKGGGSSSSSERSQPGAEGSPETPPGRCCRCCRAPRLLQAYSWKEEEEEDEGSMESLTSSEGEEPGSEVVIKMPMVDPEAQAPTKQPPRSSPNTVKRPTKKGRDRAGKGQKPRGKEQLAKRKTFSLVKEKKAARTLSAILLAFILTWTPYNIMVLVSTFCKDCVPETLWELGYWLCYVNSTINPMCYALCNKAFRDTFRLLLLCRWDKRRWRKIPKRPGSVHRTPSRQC
# Assay type: functional, cell-based
Listing: AC50 of selected compounds
parameter_measured: AC50

# compound, target, parameter_measured, result
data = [
    ("Cc1ncc2c(c1O)COC2c1ccc(Cl)cc1 (stereo unspecified)", "Muscarinic acetylcholine receptor M1 (Homo sapiens, UniProt P11229)", "AC50", "> 30 µM"),
    ("CC(=O)O[C@H]1Cc2ccccc2N(C(N)=O)c2ccccc21 [ESLICARBAZEPINE ACETATE]", "Muscarinic acetylcholine receptor M1 (Homo sapiens, UniProt P11229)", "AC50", "> 30 µM"),
    ("Cc1oc(=O)oc1COC(=O)[C@@H]1N2C(=O)[C@@H](NC(=O)[C@H](N)c3ccccc3)[C@H]2SC1(C)C", "Muscarinic acetylcholine receptor M1 (Homo sapiens, UniProt P11229)", "AC50", "9.21 µM"),
    ("CC(=O)[C@H]1CC[C@H]2[C@@H]3C=CC4=CC(=O)CC[C@@]4(C)[C@@H]3CC[C@]12C", "Muscarinic acetylcholine receptor M1 (Homo sapiens, UniProt P11229)", "AC50", "5.06 µM"),
    ("C[Se]CC[C@H](N)C(=O)O", "Muscarinic acetylcholine receptor M1 (Homo sapiens, UniProt P11229)", "AC50", "> 30 µM"),
    ("COC(=O)C[C@](O)(CCCC(C)(C)O)C(=O)O[C@@H]1C(OC)=C[C@]23CCCN2CCc2cc4c(cc2[C@H]13)OCO4 [OMACETAXINE MEPESUCCINATE]", "Muscarinic acetylcholine receptor M1 (Homo sapiens, UniProt P11229)", "AC50", "> 30 µM"),
    ("N#Cc1ccc(Oc2ccc3c(c2)COB3O)cc1", "Muscarinic acetylcholine receptor M1 (Homo sapiens, UniProt P11229)", "AC50", "13.7 µM"),
    ("O=C(CCC/C=C\\C[C@@H]1[C@@H](CC[C@@H](O)CCc2ccccc2)[C@H](O)C[C@@H]1O)OCCCCO[N+](=O)[O-]", "Muscarinic acetylcholine receptor M1 (Homo sapiens, UniProt P11229)", "AC50", "> 10 µM"),
    ("CC(C)(C)NC(=O)N[C@H](C(=O)N1C[C@H]2[C@@H]([C@H]1C(=O)NC(CC1CCC1)C(=O)C(N)=O)C2(C)C)C(C)(C)C (stereo partly specified)", "Muscarinic acetylcholine receptor M1 (Homo sapiens, UniProt P11229)", "AC50", "> 30 µM"),
    ("CN(C)c1ccc(O)c2c1C[C@H]1C[C@H]3[C@H](N(C)C)C(O)=C(C(N)=O)C(=O)[C@@]3(O)C(O)=C1C2=O", "Muscarinic acetylcholine receptor M1 (Homo sapiens, UniProt P11229)", "AC50", "> 30 µM"),
    ("CC(=O)OCC(=O)[C@@]1(O)CC[C@H]2[C@@H]3CCC4=CC(=O)CC[C@]4(C)[C@H]3[C@@H](O)C[C@@]21C [HYDROCORTISONE ACETATE]", "Muscarinic acetylcholine receptor M1 (Homo sapiens, UniProt P11229)", "AC50", "17.7 µM"),
    ("CC[C@H]1OC(=O)[C@H](C)[C@@H](O[C@H]2C[C@@](C)(OC)[C@@H](O)[C@H](C)O2)[C@H](C)[C@@H](O[C@@H]2O[C@H](C)C[C@H](N(C)C)[C@H]2O)[C@](C)(O)C[C@@H](C)[C@@H]2N[C@@H](COCCOC)O[C@H]([C@H]2C)[C@]1(C)O", "Muscarinic acetylcholine receptor M1 (Homo sapiens, UniProt P11229)", "AC50", "> 30 µM"),
    ("CC1(C)S[C@@H]2[C@H](/N=C/N3CCCCCC3)C(=O)N2[C@H]1C(=O)O", "Muscarinic acetylcholine receptor M1 (Homo sapiens, UniProt P11229)", "AC50", "> 30 µM"),
    ("Cc1cn([C@H]2O[C@@H](CO)[C@H](O)[C@H]2F)c(=O)[nH]c1=O", "Muscarinic acetylcholine receptor M1 (Homo sapiens, UniProt P11229)", "AC50", "> 30 µM"),
    ("CC[N+](C)(CC)CCOC(=O)C(O)(c1ccccc1)C1CCCCC1 (stereo unspecified)", "Muscarinic acetylcholine receptor M1 (Homo sapiens, UniProt P11229)", "AC50", "0.003 µM"),
    ("Cc1ccccc1C(=O)Nc1ccc(C(=O)N2CCCC(O)c3cc(Cl)ccc32)c(C)c1 (stereo unspecified)", "Muscarinic acetylcholine receptor M1 (Homo sapiens, UniProt P11229)", "AC50", "11.3 µM"),
]
